Provenance of the data: BindingDB's records for PubMed 1994002

Target: Muscarinic acetylcholine receptor M5 (Homo sapiens, UniProt P08912)
Sequence (P08912 whole entry): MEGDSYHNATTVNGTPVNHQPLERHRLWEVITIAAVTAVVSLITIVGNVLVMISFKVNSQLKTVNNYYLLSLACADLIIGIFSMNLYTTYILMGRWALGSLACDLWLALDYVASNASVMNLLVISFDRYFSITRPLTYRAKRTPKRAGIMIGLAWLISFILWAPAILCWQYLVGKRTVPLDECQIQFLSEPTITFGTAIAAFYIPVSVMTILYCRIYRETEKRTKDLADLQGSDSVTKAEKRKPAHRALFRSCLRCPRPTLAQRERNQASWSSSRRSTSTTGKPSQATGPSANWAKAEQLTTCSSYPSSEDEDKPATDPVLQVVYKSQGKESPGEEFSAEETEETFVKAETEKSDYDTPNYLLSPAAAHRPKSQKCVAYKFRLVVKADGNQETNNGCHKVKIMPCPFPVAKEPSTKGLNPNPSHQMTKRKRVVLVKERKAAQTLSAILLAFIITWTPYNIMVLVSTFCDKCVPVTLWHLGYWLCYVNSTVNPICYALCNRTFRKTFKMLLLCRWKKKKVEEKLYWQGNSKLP
We label by threshold. Values of Ki strictly beneath 500 nM are Satisfied. Values of 500 nM and up are Not satisfied.

- MOLECULE: "CCN(CC)CC1CCCCN1CC(=O)N1c2ccccc2NC(=O)c2ccccc21 (single isomer, unassigned; (+)) [CAS_121029-35-4]"
  CLASS: "Not satisfied"
- MOLECULE: "O[Si](CCCN1CCCCC1)(c1ccc(F)cc1)C1CCCCC1 (stereo not given) [CAS_5311091]"
  CLASS: "Satisfied"
- MOLECULE: "CCCN(CCC)CC1CCCCN1CCNC(=O)N1c2ccccc2C(=O)Nc2cccnc21 (stereo not given)"
  CLASS: "Not satisfied"

Now, please, on to the next molecule.
INPUT: Quick check: Ki of C[N+]1(C)CCC(OC(=O)C(c2ccccc2)c2ccccc2)CC1 under 500 nM?
OUTPUT: Satisfied

----------
These compounds were tested on Muscarinic acetylcholine receptor M4 (Homo sapiens, UniProt P08173); Ki is the recorded read-out.
Sequence (P08173 whole entry): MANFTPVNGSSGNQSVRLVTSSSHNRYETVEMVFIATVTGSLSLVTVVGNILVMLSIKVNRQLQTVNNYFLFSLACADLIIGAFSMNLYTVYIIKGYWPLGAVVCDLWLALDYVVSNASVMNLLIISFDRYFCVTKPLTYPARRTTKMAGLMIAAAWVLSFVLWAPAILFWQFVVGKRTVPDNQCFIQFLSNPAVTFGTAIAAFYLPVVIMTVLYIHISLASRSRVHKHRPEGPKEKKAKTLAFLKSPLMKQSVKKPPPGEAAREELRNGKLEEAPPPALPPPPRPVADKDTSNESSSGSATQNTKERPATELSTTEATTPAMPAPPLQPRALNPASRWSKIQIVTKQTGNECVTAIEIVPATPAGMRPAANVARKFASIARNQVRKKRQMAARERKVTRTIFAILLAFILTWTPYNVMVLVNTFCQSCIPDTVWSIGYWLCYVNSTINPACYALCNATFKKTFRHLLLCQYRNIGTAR
// return the numeric value with its unit appended

- COMPOUND: "O[Si](CCCN1CCCCC1)(c1ccc(F)cc1)C1CCCCC1 (stereo not drawn) [CAS_5311091]"
  TARGET_UNDER_TEST: "Muscarinic acetylcholine receptor M4 (Homo sapiens, UniProt P08173)"
  Ki: "31.6 nM"
- COMPOUND: "CCCN(CCC)CC1CCCCN1CCNC(=O)N1c2ccccc2C(=O)Nc2cccnc21 (stereo not drawn)"
  TARGET_UNDER_TEST: "Muscarinic acetylcholine receptor M4 (Homo sapiens, UniProt P08173)"
  Ki: "10 nM"

--- query ---
INPUT: Find the measured Ki: item CCN(CC)CC1CCCCN1CC(=O)N1c2ccccc2NC(=O)c2ccccc21 (single isomer, unassigned; (+)) [CAS_121029-35-4] , target or system Muscarinic acetylcholine receptor M4 (Homo sapiens, UniProt P08173).
OUTPUT: 162 nM

----------
Target: UniProt P08172
Sequence (P08172 whole entry): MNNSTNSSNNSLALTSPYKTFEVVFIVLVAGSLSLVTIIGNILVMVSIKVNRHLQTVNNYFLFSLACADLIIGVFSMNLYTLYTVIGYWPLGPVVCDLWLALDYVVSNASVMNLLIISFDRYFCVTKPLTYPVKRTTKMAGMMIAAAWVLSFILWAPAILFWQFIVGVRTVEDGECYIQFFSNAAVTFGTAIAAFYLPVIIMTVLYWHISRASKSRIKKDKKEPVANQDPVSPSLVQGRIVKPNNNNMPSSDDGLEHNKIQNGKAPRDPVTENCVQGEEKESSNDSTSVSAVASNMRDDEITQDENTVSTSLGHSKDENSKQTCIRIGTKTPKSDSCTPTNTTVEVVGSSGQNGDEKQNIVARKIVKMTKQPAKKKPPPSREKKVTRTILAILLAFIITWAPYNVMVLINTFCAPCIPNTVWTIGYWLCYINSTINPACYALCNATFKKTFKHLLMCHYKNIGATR
Measured Ki, listed per entry for reference.
Quick reminder: number only, in nM, skip the unit.

- COMPOUND: "CCCN(CCC)CC1CCCCN1CCNC(=O)N1c2ccccc2C(=O)Nc2cccnc21 (stereo not drawn)"
  MEASURED_ATTRIBUTE: "Ki"
  MEASUREMENT: 6.03
- COMPOUND: "C[C@H]1OC(=O)C2C[C@H]3CCCC[C@@H]3[C@@H](/C=C/[C@@H]3CCC[C@H](C)N3C)C21 (stereo partly drawn)"
  MEASURED_ATTRIBUTE: "Ki"
  MEASUREMENT: 10

--- query ---
INPUT: Consider the compound shown here: O[Si](CCCN1CCCCC1)(c1ccc(F)cc1)C1CCCCC1 (stereo not drawn) What is its recorded Ki?
OUTPUT: 132
